These data points were gathered from PubChem BioAssay AID1963841.

- System: 439559-082-T-J2-PDC spheroid viability
- test: Anticancer human tumor 439559-082-T-J2-PDC patient-derived colon adenocarcinoma cell line growth inhibition [POLQ]
- stated-conditions: second compound 1 µM; first compound 3.16 µM; stronger effect = lower value; spheroids with HUVEC and MSC
property-measured: viability, T/C (%)

compound	property-measured	units-label	measured-number
CC1COCCN1c1cc(C2(S(C)(=N)=O)CC2)nc(-c2ccnc3[nH]ccc23)n1 (stereo not drawn) + Cc1cccc(N(C)C(=O)C2C(O)CCN2c2nc(C)cc(C(F)(F)F)c2C#N)c1	viability, T/C	%	89.1
COc1cc2cc(C(=O)CCC(=O)O)sc2cc1OC + Cc1cccc(N(C)C(=O)C2C(O)CCN2c2nc(C)cc(C(F)(F)F)c2C#N)c1	viability, T/C	%	104
O=c1[nH]cc(F)c(=O)[nH]1 + COC1C(OC(N)=O)C(O)C(Oc2ccc3c(O)c(NC(=O)c4ccc(O)c(CC=C(C)C)c4)c(=O)oc3c2C)OC1(C)C	viability, T/C	%	68.2
CNCc1ccc(-c2[nH]c3cc(F)cc4c3c2CCNC4=O)cc1 + COC1C(OC(N)=O)C(O)C(Oc2ccc3c(O)c(NC(=O)c4ccc(O)c(CC=C(C)C)c4)c(=O)oc3c2C)OC1(C)C	viability, T/C	%	111
CCCS(=O)(=O)Nc1ccc(F)c(C(=O)c2c[nH]c3ncc(-c4ccc(Cl)cc4)cc23)c1F + Cc1cccc(N(C)C(=O)C2C(O)CCN2c2nc(C)cc(C(F)(F)F)c2C#N)c1	viability, T/C	%	91.5
CC1COCCN1c1cc(C2(S(C)(=N)=O)CC2)nc(-c2ccnc3[nH]ccc23)n1 (stereo not drawn) + COC1C(OC(N)=O)C(O)C(Oc2ccc3c(O)c(NC(=O)c4ccc(O)c(CC=C(C)C)c4)c(=O)oc3c2C)OC1(C)C	viability, T/C	%	88.8
O=C(c1cc(Cc2n[nH]c(=O)c3ccccc23)ccc1F)N1CCN(C(=O)C2CC2)CC1 + COC1C(OC(N)=O)C(O)C(Oc2ccc3c(O)c(NC(=O)c4ccc(O)c(CC=C(C)C)c4)c(=O)oc3c2C)OC1(C)C	viability, T/C	%	107
CCc1cc2c(N3CCc4c(cc(Cn5ccnc5)cc4-c4cn(C)nc4C(F)(F)F)C3=O)cc(C)nc2c(OC)n1 + Nc1ccc(C#CCN(C(=O)Cc2ncc(C(F)(F)F)cc2C(F)(F)F)c2ccc(F)cc2)nn1	viability, T/C	%	104
Nc1ccn(C2OC(CO)C(O)C2(F)F)c(=O)n1 (stereo not drawn) + COC1C(OC(N)=O)C(O)C(Oc2ccc3c(O)c(NC(=O)c4ccc(O)c(CC=C(C)C)c4)c(=O)oc3c2C)OC1(C)C	viability, T/C	%	32.6
CC1COCCN1c1cc(C2(O)CC3CCC(C2)O3)c2cnn(-c3ccn[nH]3)c2n1 (stereo not drawn) + Cc1cccc(N(C)C(=O)C2C(O)CCN2c2nc(C)cc(C(F)(F)F)c2C#N)c1	viability, T/C	%	51.5
C#Cc1c(F)ccc2cc(O)cc(-c3ncc4c(N5CC6CCC(C5)N6)nc(OCC56CCCN5CC(F)C6)nc4c3F)c12 (stereo not drawn) + Cc1cccc(N(C)C(=O)C2C(O)CCN2c2nc(C)cc(C(F)(F)F)c2C#N)c1	viability, T/C	%	62
CCc1cc2c(N3CCc4c(cc(Cn5ccnc5)cc4-c4cn(C)nc4C(F)(F)F)C3=O)cc(C)nc2c(OC)n1 + Cc1cccc(N(C)C(=O)C2C(O)CCN2c2nc(C)cc(C(F)(F)F)c2C#N)c1	viability, T/C	%	99.6
Nc1ccn(C2OC(CO)C(O)C2(F)F)c(=O)n1 (stereo not drawn) + Nc1ccc(C#CCN(C(=O)Cc2ncc(C(F)(F)F)cc2C(F)(F)F)c2ccc(F)cc2)nn1	viability, T/C	%	32.7

---

- System: 439559-082-T-J2-PDC spheroid viability
- test: Anticancer human tumor 439559-082-T-J2-PDC cell line growth inhibition [POLQ];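 note: spheroids exposed to compounds for seven days before readout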;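 for viability, T/C: 100% = DMSO vehicle control viability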
- stated-conditions: second compound 3.16 µM; first compound 0.316 µM; stronger effect = lower value; spheroids with HUVEC and MSC
property-measured: viability, T/C

molecule	target-entity	result
CNCc1ccc(-c2[nH]c3cc(F)cc4c3c2CCNC4=O)cc1 + Cc1cccc(N(C)C(=O)C2C(O)CCN2c2nc(C)cc(C(F)(F)F)c2C#N)c1	439559-082-T-J2-PDC spheroid viability	96.9%
CC(C)n1c(=O)n(C)c2cnc3cc(F)c(-c4ccc(OCCCN5CCCCC5)nc4)cc3c21 + Nc1ccc(C#CCN(C(=O)Cc2ncc(C(F)(F)F)cc2C(F)(F)F)c2ccc(F)cc2)nn1	439559-082-T-J2-PDC spheroid viability	101%
CCCS(=O)(=O)Nc1ccc(F)c(C(=O)c2c[nH]c3ncc(-c4ccc(Cl)cc4)cc23)c1F + COC1C(OC(N)=O)C(O)C(Oc2ccc3c(O)c(NC(=O)c4ccc(O)c(CC=C(C)C)c4)c(=O)oc3c2C)OC1(C)C	439559-082-T-J2-PDC spheroid viability	94.3%

---

# IC50 listing for each entry below
- System: 439559-082-T-J2-PDC spheroid viability
- test: Anticancer human tumor 439559-082-T-J2-PDC cell line growth inhibition [POLQ];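 note: spheroids exposed to compounds for seven days before readout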
- stated-conditions: curve of first compound; second compound 3.16 µM; spheroids with HUVEC and MSC
property-measured: IC50

molecule	result
CC1COCCN1c1cc(C2(S(C)(=N)=O)CC2)nc(-c2ccnc3[nH]ccc23)n1 (stereo not given) + Nc1ccc(C#CCN(C(=O)Cc2ncc(C(F)(F)F)cc2C(F)(F)F)c2ccc(F)cc2)nn1	> 10 µM
O=C(Nc1ccc(O)c(NS(=O)(=O)c2ccc(F)cc2)c1)c1ccc(-c2ccccc2)cc1 + Nc1ccc(C#CCN(C(=O)Cc2ncc(C(F)(F)F)cc2C(F)(F)F)c2ccc(F)cc2)nn1	> 10 µM
COc1cccc(OCCCN)c1-c1cc(Nc2cnc(C#N)cn2)n[nH]1 + COC1C(OC(N)=O)C(O)C(Oc2ccc3c(O)c(NC(=O)c4ccc(O)c(CC=C(C)C)c4)c(=O)oc3c2C)OC1(C)C	0.133 µM
CC1COCCN1c1cc(C2(O)CC3CCC(C2)O3)c2cnn(-c3ccn[nH]3)c2n1 (stereo not given) + Nc1ccc(C#CCN(C(=O)Cc2ncc(C(F)(F)F)cc2C(F)(F)F)c2ccc(F)cc2)nn1	> 10 µM
C=CCn1c(=O)c2cnc(Nc3ccc(N4CCN(C)CC4)cc3)nc2n1-c1cccc(C(C)(C)O)n1 + Cc1cccc(N(C)C(=O)C2C(O)CCN2c2nc(C)cc(C(F)(F)F)c2C#N)c1	> 1 µM

---

- Test system: 439559-082-T-J2-PDC spheroid viability
- test: Anticancer human tumor 439559-082-T-J2-PDC cell line growth inhibition [POLQ];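 note: spheroids exposed to compounds for seven days before readout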;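 for viability, T/C: 100% = DMSO vehicle control viability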
- stated-conditions: second compound 3.16 µM; first compound 1 µM; stronger effect = lower value; spheroids with HUVEC and MSC
Below, each entry is listed alongside its reported viability, T/C.
property-measured: viability, T/C (%)

compound	target-entity	property-measured	measured-number
O=C(c1cc(Cc2n[nH]c(=O)c3ccccc23)ccc1F)N1CCN(C(=O)C2CC2)CC1 + COC1C(OC(N)=O)C(O)C(Oc2ccc3c(O)c(NC(=O)c4ccc(O)c(CC=C(C)C)c4)c(=O)oc3c2C)OC1(C)C	439559-082-T-J2-PDC spheroid viability	viability, T/C	97
CCc1cc2c(N3CCc4c(cc(Cn5ccnc5)cc4-c4cn(C)nc4C(F)(F)F)C3=O)ccnc2c(OC)n1 + COC1C(OC(N)=O)C(O)C(Oc2ccc3c(O)c(NC(=O)c4ccc(O)c(CC=C(C)C)c4)c(=O)oc3c2C)OC1(C)C	439559-082-T-J2-PDC spheroid viability	viability, T/C	92
CNCc1ccc(-c2[nH]c3cc(F)cc4c3c2CCNC4=O)cc1 + Nc1ccc(C#CCN(C(=O)Cc2ncc(C(F)(F)F)cc2C(F)(F)F)c2ccc(F)cc2)nn1	439559-082-T-J2-PDC spheroid viability	viability, T/C	97.4
COc1cc(C2c3cc4c(cc3C(OC3OC5COC(C)OC5C(O)C3O)C3COC(=O)C23)OCO4)cc(OC)c1O (stereo unspecified) + COC1C(OC(N)=O)C(O)C(Oc2ccc3c(O)c(NC(=O)c4ccc(O)c(CC=C(C)C)c4)c(=O)oc3c2C)OC1(C)C	439559-082-T-J2-PDC spheroid viability	viability, T/C	94.5
CNCc1ccc(-c2[nH]c3cc(F)cc4c3c2CCNC4=O)cc1 + COC1C(OC(N)=O)C(O)C(Oc2ccc3c(O)c(NC(=O)c4ccc(O)c(CC=C(C)C)c4)c(=O)oc3c2C)OC1(C)C	439559-082-T-J2-PDC spheroid viability	viability, T/C	95.8
COc1ccc([C@@H](O)c2cc(-c3ncnc4cc(N5CCOCC5)ccc34)c(F)cc2Cl)nn1 + Cc1cccc(N(C)C(=O)C2C(O)CCN2c2nc(C)cc(C(F)(F)F)c2C#N)c1	439559-082-T-J2-PDC spheroid viability	viability, T/C	95.6
